Test system: LOC_OS02G08530-cb003
Assay: thermal shift delta Tm vs DMSO control; higher = stronger stabilization (binding);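 note: purified Escherichia coli-expressed rice kinase domain construct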
Details: 12.5 µM; protein concentration 2 µM
Counter-ions that a name gives are not always drawn.
Result type: thermal shift delta Tm (°C)
Report as a plain number; the unit °C is understood.

Examples with their reported thermal shift delta Tm follow.
>>> print(df.to_string())
                                   compound             result_type  experimental_value
0  N#Cc1ccc(-c2c(-c3ncn[nH]3)sc(N3CCOCC3)c2C#N)c(F)c1  thermal shift delta Tm                0.69
1  COc1cccc(-n2c(=O)[nH]c3cc(Cl)n(-c4ccc(-c5cccc(OC)c5O)cc4)c3c2=O)c1  thermal shift delta Tm                0.98
2  CNc1nc(Nc2cn(C(C)(C)C#N)nc2C)ncc1C(F)(F)F  thermal shift delta Tm                0.86
3  COc1cc(Nc2ncc(F)c(Nc3ccc4c(n3)NC(=O)C(C)(C)O4)n2)cc(OC)c1OC  thermal shift delta Tm                   4
4  Cc1cc(C(C)Nc2ccccc2)c2nc(N3CCOCC3)cc(=O)n2c1 (centres undefined)  thermal shift delta Tm                0.37
5  C[C@]1(O)C[C@@H](c2nc(-c3ccc4ccc(-c5ccccc5)nc4c3)c3c(N)nccn32)C1  thermal shift delta Tm                0.86
6  CC(C)(C)c1nc(-c2cccc(NS(=O)(=O)c3c(F)cccc3F)c2F)c(-c2ccnc(N)n2)s1  thermal shift delta Tm                1.92
7  O=C(Nc1cccc(Cl)c1)Nc1ncc(CCNc2ncnc3ccsc23)s1 [SNS-314 Mesylate]  thermal shift delta Tm                 2.1

Input: Please report the recorded thermal shift delta Tm for `O=c1ccc2ccc(O)c(O)c2o1` .
Output: 1.2

Input: Given the entry `O=C(NOCCO)c1ccc2cncn2c1Nc1ccc(I)cc1F` , report its measured thermal shift delta Tm.
Output: 0.47

Input: Field request: thermal shift delta Tm | item: `Cc1cc(Nc2ncc(Cl)c(Nc3ccccc3S(=O)(=O)C(C)C)n2)c(OC(C)C)cc1C1CCNCC1`
Output: 5.56

Input: Which thermal shift delta Tm is reported for this compound? `CNC(=O)c1cc(COc2nnc(Nc3ccc(Cl)cc3)c3ccoc23)ccn1`
Output: 0.69

Input: Sample `Cc1ncc(CO)c(CO)c1O` — what was its thermal shift delta Tm?
Output: 0.26

Input: Which thermal shift delta Tm is reported for this compound? `Cc1nc(N)sc1-c1ccnc(Nc2ccc(N3CCOCC3)cc2)n1`
Output: 2.22

====

Tested on: LOC_OS03G04050-cb001
Assay: thermal shift delta Tm vs DMSO control; higher = stronger stabilization (binding)
Details: 12.5 µM; protein concentration 2 µM
The reader will find reported thermal shift delta Tm values listed item by item below.
Enter your answer as a number in °C; do not include the unit.

>>> print(df.to_string())
                                   molecule             result_type  experimental_value
0  O=C(NCCCNc1nc(Nc2cccc(NC(=O)N3CCCC3)c2)ncc1I)c1cccs1  thermal shift delta Tm                0.97
1  Cc1ccc(-n2nc(C(C)(C)C)cc2NC(=O)NCc2cc(F)ccc2Oc2ccc3c(cnn3CCO)c2)cc1  thermal shift delta Tm                0.65
2  COc1ccc(CNC(=O)Nc2ncc([N+](=O)[O-])s2)cc1  thermal shift delta Tm                0.67
3  CC1(C)CNc2cc(NC(=O)c3cccnc3NCc3ccncc3)ccc21 [Motesanib Diphosphate (AMG-706)]  thermal shift delta Tm                 0.4
4  COc1ccc(-c2nc(N3CCOCC3)c3sc(CN(C)c4ncc(C(=O)NO)cn4)cc3n2)cn1  thermal shift delta Tm                0.23
5  CN(C[C@@H]1COCCO1)S(=O)(=O)Nc1ccc2ccc3ncc(-c4cnn(C)c4)cc3c(=O)c2c1  thermal shift delta Tm                0.37
6  CC(C)(C)c1cc(NC(=O)Nc2ccc(Oc3ccnc4[nH]c(=O)cnc34)cc2F)n(-c2ccccc2)n1  thermal shift delta Tm                0.21
7  CC(C)n1ncnc1-c1cn2c(n1)-c1ccc(O[C@@H](C)C(N)=O)cc1OCC2  thermal shift delta Tm                0.37

Now for a further molecule.
Input: Find the recorded thermal shift delta Tm belonging to OC(c1cc(-c2ccc(Cl)cc2)nc2ccccc12)C1CCCCN1 (centres undefined) and report it.
Output: 0.42
